# Measured On: acetylcholine receptor
# Assay Overview: SPR, peptide at 10 uM on immobilised AchR
Measure: Binding affinity (RU)

Here are 8 binders together with their reported answers.
>>> df
               binder  endpoint_result
0  RRVLYK [6mer-1-51]              127
1  KKSISR [6mer-1-66]              147
2   RKSFCK [6mer-1-9]              154
3  KRLYCR [6mer-1-31]              121
4  RRGIQR [6mer-1-56]              137
5   RKSFYK [6mer-1-4]              139
6  RKQYYK [6mer-1-57]              139
7  KRVIQR [6mer-1-53]              123

A: RKLQLK [6mer-1-68]
B: RKRIRR [6mer-1-43]
Would you mind telling me which has the lower recorded Binding affinity (RU) between A and B ? Mark your answer with the label of the selected entry.
A
(A: 153 RU, B: 548 RU)
